- Test system: Human papillomavirus type 16
- protocol: Antiviral activity against HPV16 pseudovirus expressing HcRed reporter infected in HeLa-M cells assessed as reduction in viral infectivity pre-incubated for 0.5 hrs with compound before viral infection for 72 hrs by flow cytometry
- Assay type: functional, organism-based
- conditionLabel: Human papillomavirus 16, HeLaM
propertyName: pIC50
The value called pIC50 is obtained by taking minus log10 of the concentration in mol/L.

compound="CCc1ccc(C2Nc3ccc(F)cc3C(=O)N2Cc2ccc(F)cc2)s1 (racemic)" result=4.62

Shifting focus to the compound that follows.
The compound identified as Cc1ccc(C2Nc3ccccc3C(=O)N2c2ccccc2)s1 (racemic) registered its pIC50 at 3.80
